- Tested on: Staphylococcus aureus
- testSummary: Antibacterial activity against Staphylococcus aureus PU32 by microbroth dilution method
- Type: functional
valueType: MIC (µg/mL)
Report the value in µg/mL with no unit label.

Solved cases (3 shown):
{"compound": "CC[C@H]1OC(=O)[C@H](C)C(=O)[C@H](C)[C@@H](O[C@@H]2O[C@H](C)C[C@H](N(C)C)[C@H]2O)[C@](C)(OC)C[C@@H](C)C(=O)[C@H](C)[C@H]2N(CCCC#Cc3ccc4c(=O)c(C(=O)O)cn(C5CC5)c4c3)C(=O)O[C@]12C", "MIC / µg/mL": 4}
{"compound": "CC[C@H]1OC(=O)[C@H](C)C(=O)[C@H](C)[C@@H](O[C@@H]2O[C@H](C)C[C@H](N(C)C)[C@H]2O)[C@](C)(OC)C[C@@H](C)C(=O)[C@H](C)[C@H]2N(CC/C=C\\c3ccc4c(c3)c(=O)c(C(=O)O)cn4C3CC3)C(=O)O[C@]12C", "MIC / µg/mL": 0.5}
{"compound": "CC[C@H]1OC(=O)[C@H](C)C(=O)[C@H](C)[C@@H](O[C@@H]2O[C@H](C)C[C@H](N(C)C)[C@H]2O)[C@](C)(OC)C[C@@H](C)C(=O)[C@H](C)[C@H]2N(CCCCn3cnc(-c4cccnc4)c3)C(=O)O[C@]12C [TELITHROMYCIN]", "MIC / µg/mL": 0.5}

Now let's try a different one.
Q: Recorded MIC of CC[C@H]1OC(=O)[C@H](C)C(=O)[C@H](C)[C@@H](O[C@@H]2O[C@H](C)C[C@H](N(C)C)[C@H]2O)[C@](C)(OC)C[C@@H](C)C(=O)[C@H](C)[C@H]2N(CCC#Cc3ccc4c(c3)c(=O)c(C(=O)O)cn4C3CC3)C(=O)O[C@]12C , please.
Ans: 2

###

- Test system: Staphylococcus aureus
- testSummary: Antibacterial activity against Staphylococcus aureus PU32 by microbroth dilution method
- Format: functional
compounds and their reported MIC

Solved cases (3 shown):
{"smilesString": "CC[C@H]1OC(=O)[C@H](C)C(=O)[C@H](C)[C@@H](O[C@@H]2O[C@H](C)C[C@H](N(C)C)[C@H]2O)[C@](C)(OC)C[C@@H](C)C(=O)[C@H](C)[C@H]2N(CCCCc3ccc4c(=O)c(C(=O)O)cn(C5CC5)c4c3)C(=O)O[C@]12C", "dataValue": "1 µg/mL"}
{"smilesString": "CC[C@H]1OC(=O)[C@H](C)C(=O)[C@H](C)[C@@H](O[C@@H]2O[C@H](C)C[C@H](N(C)C)[C@H]2O)[C@](C)(OC)C[C@@H](C)C(=O)[C@H](C)[C@H]2N(CCN3CCN(c4c(F)cc5c(=O)c(C(=O)O)cn(C6CC6)c5c4OC)CC3)C(=O)O[C@]12C", "dataValue": "8 µg/mL"}
{"smilesString": "CC[C@H]1OC(=O)[C@H](C)C(=O)[C@H](C)[C@@H](O[C@@H]2O[C@H](C)C[C@H](N(C)C)[C@H]2O)[C@](C)(OC)C[C@@H](C)C(=O)[C@H](C)[C@H]2N(CCCC#Cc3ccc4c(=O)c(C(N)=O)cn(C5CC5)c4c3)C(=O)O[C@]12C", "dataValue": "4 µg/mL"}

Now let's try a different one.
Q: Recorded MIC of CC[C@H]1OC(=O)[C@H](C)C(=O)[C@H](C)[C@@H](O[C@@H]2O[C@H](C)C[C@H](N(C)C)[C@H]2O)[C@](C)(OC)C[C@@H](C)C(=O)[C@H](C)[C@H]2N(CCCCC#Cc3ccc4c(=O)c(C(=O)O)cn(C5CC5)c4c3)C(=O)O[C@]12C , please.
Ans: 2 µg/mL
